Provenance of the data: patent US8865967B2

Test system: Diplodia maydis (DMA)
Format: cell-based
Settings: low salt: 1/8x potato dextrose broth plus 0.25 mM calcium chloride, 12.5 mM potassium chloride
READOUT_LABEL: IC50 (ppm) Low Salt Dma
Give the number; ppm is assumed, so skip it.

I'd like to know its IC50 (ppm) Low Salt Dma. The substance in question is PP-PDF1-2CF-2D8: Pp-PDF1 variant from second shuffling round (RVCTKPSKFYKGLCVSDRDCTNACRKEGLPTGFCQSKGFFNSVCVCKKPC; Synthetic sequence obtained from DNA shuffling of a plant sequence.) 15

Give its IC50 (ppm) Low Salt Dma value. Item: Pp-PDF1-3CA-1A2: Pp-PDF1 variant from third shuffling round (RVCTKPSKFYRGLCVSDRDCTHACRKEGLPTGFCQSKGFFNSVCVCKKPC; Synthetic sequence obtained from DNA shuffling of a plant sequence.) 15

Param item = Pp-PDF1-3CA-1A7: Pp-PDF1 variant from third shuffling round (RVCTKPSKFFRGLCVSDRDCTNACRKEGLPIGFCQSKGFFNSVCVCKKPC; Synthetic sequence obtained from DNA shuffling of a plant sequence.) ; retrieve measured IC50 (ppm) Low Salt Dma. 10

Name the reported IC50 (ppm) Low Salt Dma value associated with the substance Pp-PDF1: Picramnia pentandra plant defensin, parent polypeptide used in the DNA shuffling (KVCTKPSKFFKGLCGADRDCTVACKKEGLATGFCQKKGFFNFVCVCRKPC; listed as Picramnia pentandra) [reference compound] 7.5
